# Assay Name: PhoP-dependent GFP reporter repression – Salmonella Typhimurium, primary screen (AID 1863);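 further: 0% = low Mg2+ inducing control and 100% = high Mg2+ repressing control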
# Condition Details: S. Typhimurium PhoP-regulated promoter GFP reporter, 4 h; at 50 µM; hits give high values
About 480 (0.16%) of roughly 300,000 compounds were called active. Not all results are given here. Entries with a potency or affinity are not part of this list.
Each record here notes measured inhibition.
Please state the figure in %; there is no need to write the unit.

A selection of reference data follows.
Molecule | inhibition [%]
Oc1ccccc1/C=N/Nc1nccnc1Cl | 25.1
COc1ccccc1N1CCN(C(=O)Nc2cccc(Cl)c2)CC1 | -5.86
O=Cc1c(F)cccc1N1CCCC1 | 8.32
CCCCC[n+]1cccc2c3ccccc3ccc21 | -3.43
CCn1c(C)nnc1SCC(=O)Nc1ccc(N2CCOCC2)cc1 | 10

Query string: Let me know recorded inhibition for `CCOc1c(Cl)cc(CNCc2ccncc2)cc1OC` , thanks.
Result string: 2.05

# credit: PubChem BioAssay AID1863
